Values were extracted from ChEMBL document CHEMBL1129695.

system.name: Aromatase (Homo sapiens)
Sequence (P11511 whole entry): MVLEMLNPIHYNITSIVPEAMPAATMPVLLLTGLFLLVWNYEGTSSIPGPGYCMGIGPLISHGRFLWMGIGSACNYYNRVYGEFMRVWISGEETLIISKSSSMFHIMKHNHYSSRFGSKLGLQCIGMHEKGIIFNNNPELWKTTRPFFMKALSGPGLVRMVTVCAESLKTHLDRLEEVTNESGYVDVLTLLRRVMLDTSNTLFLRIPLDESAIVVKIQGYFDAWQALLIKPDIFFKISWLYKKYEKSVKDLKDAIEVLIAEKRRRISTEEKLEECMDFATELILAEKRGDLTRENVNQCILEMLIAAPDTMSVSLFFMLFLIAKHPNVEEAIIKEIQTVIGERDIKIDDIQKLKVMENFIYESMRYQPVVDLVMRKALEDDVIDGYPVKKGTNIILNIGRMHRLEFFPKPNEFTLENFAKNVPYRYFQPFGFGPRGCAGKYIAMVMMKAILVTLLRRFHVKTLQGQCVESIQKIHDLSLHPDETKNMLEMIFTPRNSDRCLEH
reported.property: IC50 (µM)

| molecule | reported.property | readout.units | qual | observed.value |
| --- | --- | --- | --- | --- |
| CCCCCCCC[C@@H]1CC2C(CCC3(C)C(O)CCC23)C2(C)CCCC=C12 (some centres undefined) | IC50 | µM | > | 50 |
| CCCCC[C@@H]1CC2C(CCC3(C)C(O)CCC23)C2(C)CCCC=C12 (some centres undefined) | IC50 | µM | > | 50 |
| CCCCC[C@H]1CC2C(CCC3(C)C(O)CCC23)C2(C)CCCC=C12 (some centres undefined) | IC50 | µM | > | 50 |
| CCCCCCCC[C@@H]1CC2C3CCC(=O)C3(C)CCC2C2(C)CCCC=C12 (some centres undefined) | IC50 | µM | > | 50 |
| CCCCCCCC[C@H]1CC2C3CCC(=O)C3(C)CCC2C2(C)CCCC=C12 (some centres undefined) | IC50 | µM | > | 50 |
| CO[C@@H]1CC2C3CCC(=O)C3(C)CCC2C2(C)CCCC=C12 (some centres undefined) | IC50 | µM | = | 0.13 |
| CC(=O)O[C@@H]1CC2C3CCC(=O)C3(C)CCC2C2(C)CCCC=C12 (some centres undefined) | IC50 | µM | = | 0.26 |
| CC[C@H]1CC2C(CCC3(C)C(O)CCC23)C2(C)CCCC=C12 (some centres undefined) | IC50 | µM | = | 1.3 |
| CCCCC[C@H]1CC2C3CCC(=O)C3(C)CCC2C2(C)CCCC=C12 (some centres undefined) | IC50 | µM | = | 9 |
| C[C@@H]1CC2C(CCC3(C)C(O)CCC23)C2(C)CCCC=C12 (some centres undefined) | IC50 | µM | = | 1.6 |
| CCCCCCCC[C@H]1CC2C(CCC3(C)C(O)CCC23)C2(C)CCCC=C12 (some centres undefined) | IC50 | µM | > | 50 |
| CC12CCCC=C1CCC1C2CCC2(C)C1CC[C@@H]2O (some centres undefined) | IC50 | µM | = | 0.36 |
| CC[C@@H]1CC2C(CCC3(C)C(O)CCC23)C2(C)CCCC=C12 (some centres undefined) | IC50 | µM | = | 3.3 |
| CCCCC[C@@H]1CC2C3CCC(=O)C3(C)CCC2C2(C)CCCC=C12 (some centres undefined) | IC50 | µM | = | 12 |
